This collection of values is drawn from paper PMC10541190.

Recorded viability at 3.33 µM values for a group of molecules are listed next.
# ASSAY TEXT: in vitro
# CONDITION LABEL: human, U-87 MG cell viability (%)
READOUT TYPE: viability at 3.33 µM (%)

CO[C@@H]1[C@@H](O[C@@H]2O[C@H](C)[C@@H](O[C@H]3C[C@@](C)(O)[C@@H](OC(=O)CC(C)C)[C@H](C)O3)[C@H](N(C)C)[C@H]2O)[C@@H](CC=O)C[C@@H](C)[C@@H](O)/C=C/C=C/C[C@@H](C)OC(=O)C[C@H]1OC(C)=O | 91.6
CN(C)C(=O)C(CCN1CCC(O)(c2ccc(Cl)cc2)CC1)(c1ccccc1)c1ccccc1 [Lopera-mide] | 101
[N-]=[N+]=CC(=O)OC[C@H](N)C(=O)O | 94.5
